// data source = the kinase profiling compilation of Christmann-Franck et al. (2016)

# TESTED TARGET: SRPK1 (human) (UniProt Q96SB4)
# Sequence (Q96SB4 whole entry, looked up): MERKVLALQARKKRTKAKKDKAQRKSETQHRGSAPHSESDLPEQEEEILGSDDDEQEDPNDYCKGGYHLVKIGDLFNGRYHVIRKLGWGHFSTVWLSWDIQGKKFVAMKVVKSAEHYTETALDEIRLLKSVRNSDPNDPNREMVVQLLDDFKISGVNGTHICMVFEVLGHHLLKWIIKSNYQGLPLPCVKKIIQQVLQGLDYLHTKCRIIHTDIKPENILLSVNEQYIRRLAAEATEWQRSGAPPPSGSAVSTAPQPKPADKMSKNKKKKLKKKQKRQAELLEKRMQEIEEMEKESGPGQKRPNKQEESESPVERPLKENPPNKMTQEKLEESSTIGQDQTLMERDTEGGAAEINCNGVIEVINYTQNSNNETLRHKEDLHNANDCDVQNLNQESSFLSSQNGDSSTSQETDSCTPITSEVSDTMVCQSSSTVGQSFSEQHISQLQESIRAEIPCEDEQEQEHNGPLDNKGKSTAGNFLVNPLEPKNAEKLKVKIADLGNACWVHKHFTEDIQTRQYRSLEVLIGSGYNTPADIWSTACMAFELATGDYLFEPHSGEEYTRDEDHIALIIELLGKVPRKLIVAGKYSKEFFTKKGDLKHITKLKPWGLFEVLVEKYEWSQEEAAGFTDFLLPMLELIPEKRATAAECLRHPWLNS
# ASSAY PROCEDURE: radiometric filter-binding kinase assay, Kinase HotSpot
# CONDITION SET: compound 0.5 µM; ATP 10 µM
MEASURED METRIC: residual activity (%)
Give just the number in %; leave the unit off.

Incoming: Name the recorded residual activity for `O=C(O)c1ccc2c3c1cccc3c(=O)n1c3ccccc3nc21` .
Outgoing: 96.1

Incoming: Look up residual activity: `COc1cc2c(Nc3ccc(Br)cc3F)ncnc2cc1OCC1CCN(C)CC1`
Outgoing: 97.9

Incoming: Tell me the measured residual activity of `N#C/C(=C1/Nc2ccccc2S1)c1ccnc(NCCc2cccnc2)n1` , please.
Outgoing: 97

Incoming: // query residual activity value for entry `COc1cc2c(cc1OC)-c1[nH]nc(Nc3cccc(F)c3)c1C2`
Outgoing: 101

Incoming: Dear colleague, I am looking for the recorded residual activity of the following compound: `N#Cc1c(NC(=O)c2cccc3ccccc23)sc2c1CCCC2`
Outgoing: 102

Incoming: Reported residual activity, compound `O=C1NC(=O)c2cc(Nc3ccc(F)cc3)c(Nc3ccc(F)cc3)cc21` : ____
Outgoing: 102
